The following compounds are listed with their measured pIC50 values.
- assayed target: human DP2 receptor (Homo sapiens)
- protocol text: Prostaglandin D2 binding inhibition assay (scintillation proximity assay, 3H PGD2, membranes of transfected CHO cells)
- study conditions: SPA, 5.5 nM 3H PGD2, CHO-K1 FLP-In human DP2 membranes; upper limit determinable 30 μM; read-out: IC50 ranges for inhibition of PGD2 binding to human DP2
pIC50: −log10 of the molar value.

Solved cases (3 shown):
[[record]]
compound = "CC(C)(C)c1ccc(S(=O)(=O)N2CCC(n3c(=O)n(CC(=O)O)c4cccnc43)CC2)cc1 [Compound 65]"
endpoint_value = "5.00 to 6.00"

[[record]]
compound = "O=C(O)Cn1c(=O)n(C2CCN(S(=O)(=O)c3ccccc3Cl)CC2)c2ncccc21 [Compound 58]"
endpoint_value = "> 6.00"

[[record]]
compound = "O=C(O)Cn1c(=O)n(C2CCN(S(=O)(=O)c3ccc(Cl)cc3F)CC2)c2ncc(F)cc21 [Compound 71]"
endpoint_value = "5.00 to 6.00"


Identify measured pIC50 associated with Cc1noc(C)c1S(=O)(=O)N1CCC(n2c(=O)n(CC(=O)O)c3cccnc32)CC1 [Compound 54] < 4.52

---

- assayed target: human DP2 receptor (Homo sapiens, UniProt Q9Y5Y4)
- Sequence (Q9Y5Y4 whole entry): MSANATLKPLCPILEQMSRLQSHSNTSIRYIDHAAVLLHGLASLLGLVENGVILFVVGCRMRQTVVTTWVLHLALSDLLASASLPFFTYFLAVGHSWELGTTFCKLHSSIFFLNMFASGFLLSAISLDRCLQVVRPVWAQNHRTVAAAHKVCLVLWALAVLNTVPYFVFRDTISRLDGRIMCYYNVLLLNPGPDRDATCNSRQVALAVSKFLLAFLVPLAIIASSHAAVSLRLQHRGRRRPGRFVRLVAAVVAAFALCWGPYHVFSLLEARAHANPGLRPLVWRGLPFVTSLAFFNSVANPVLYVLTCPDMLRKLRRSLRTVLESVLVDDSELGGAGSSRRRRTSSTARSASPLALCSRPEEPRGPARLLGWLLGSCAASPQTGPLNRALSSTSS
- protocol text: Measurement of inhibition of intracellular cAMP induction (LANCE cAMP TR-FRET)
- study conditions: human DP2 cells, 4 μM NKH-477 pre-stimulation, 30 nM PGD2; read-out: EC50, antagonism of intracellular cAMP induction
pEC50: −log10 of the molar value.
test readout: pEC50

Retrieve pEC50 measured for CS(=O)(=O)c1ccccc1S(=O)(=O)N1CCC(n2c(=O)n(CC(=O)O)c3cccnc32)CC1 and print it. > 6.00

---

- assayed target: human DP2 receptor (Homo sapiens, UniProt Q9Y5Y4)
- protocol text: Prostaglandin D2 binding inhibition assay (scintillation proximity assay, 3H PGD2, membranes of transfected CHO cells)
- study conditions: SPA, 5.5 nM 3H PGD2, CHO-K1 FLP-In human DP2 membranes; upper limit determinable 30 μM; read-out: IC50 ranges for inhibition of PGD2 binding to human DP2
- Method: The ability of compounds to inhibit binding of prostaglandin D2 (PGD2) to the human DP2 receptor was measured using a scintillation proximity assay (SPA). Chinese Hamster Ovary FLP-In cell lines (CHO-K1 FLP-In, Invitrogen, catalog no. R758-07) were stably transfected with the human DP2 gene (Genebank: AY507142). […] Membranes from transfected cells were isolated for binding assays. […] Data were expressed as a percent of the difference between the maximum and minimum responses. […]
pIC50: −log10 of the molar value.
Listed here are molecules together with their documented pIC50.

Completed entries (count: 3):
[[record]]
molecule = "Cc1ccc(S(=O)(=O)NC2CCC(n3c(=O)n(CC(=O)O)c4cccnc43)CC2)c(F)c1 (stereo not shown) [Compound 107]"
test_readout = "pIC50"
endpoint_value = "5.00 to 6.00"

[[record]]
molecule = "O=C(O)Cn1c(=O)n(C2CCN(S(=O)(=O)c3ccc(Cl)cc3Cl)CC2)c2ccncc21 [Compound 142]"
test_readout = "pIC50"
endpoint_value = "< 4.52"

[[record]]
molecule = "O=C(O)Cn1c(=O)n(C2CCN(S(=O)(=O)c3ccc(C(F)(F)F)cc3)CC2)c2ncccc21 [Compound 39]"
test_readout = "pIC50"
endpoint_value = "5.00 to 6.00"


In the following, a different molecule is considered.
Please give measured pIC50 of the following entry: Cc1cc(F)ccc1S(=O)(=O)N1CCC(n2c(=O)n(CC(=O)O)c3cccnc32)CC1 [Compound 36] > 6.00

Cited source: patent US20110190336A1
